Collected selectivity ratio values appear next to each entry.
experiment-description: Therapeutic index, ratio of TC50 for human HT1080 cells to EC50 for GFP-expressing Vaccinia virus WR infected in human HT1080 cells
Format: cell-based, HT-1080
measurement-parameters: read-out: TI
Just the number, please, no unit attached.

1) COc1ccc(C(C)c2cc(OC)c(OC)c(OC)c2)cc1 (configuration not stated) ... 50

### Prompt Tell me its selectivity ratio given `Oc1ccc(/C=N/c2ccccc2/N=C/c2ccc(O)c(O)c2)cc1O` as the entry.
### Response 5.6

====

study-target: UniProtKB Q07817
Sequence (Q07817 whole entry): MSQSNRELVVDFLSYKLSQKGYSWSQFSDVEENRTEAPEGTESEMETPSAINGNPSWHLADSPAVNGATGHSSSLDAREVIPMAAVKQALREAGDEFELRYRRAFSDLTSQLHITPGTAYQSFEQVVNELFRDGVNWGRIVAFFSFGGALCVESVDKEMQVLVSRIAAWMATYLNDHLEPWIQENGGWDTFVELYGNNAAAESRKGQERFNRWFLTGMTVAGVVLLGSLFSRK
experiment-description: Displacement of FITC-conjugated BH3-Bak peptide from human recombinant Bcl-XL expressed in Escherichia coli BL21 (DE3) by fluorescence polarization assay
Collected pIC50 values appear next to each entry.
// scale note: pIC50 = -log10(conc_M); give the bare number

1) Oc1ccc(/C=C/c2cc(O)cc(O)c2)cc1 ... 3.72

Moving on to the next compound.
### Prompt Tell me its pIC50 given `Oc1cc(Cc2ccccc2)c(Cc2ccccc2)cc1O` as the entry.
### Response 5.07

Sourced from ChEMBL document CHEMBL1157820
